System: A498 renal
Test: NCI tumour cell line growth inhibition, 48 h
The label depends only on TGI: Met if it is at least 30 µM, Not met if it is smaller.

Lookup: Does O=NN(CC(=O)NNc1ccccc1)CC(=O)NNc1ccccc1 have a reported TGI of at least 30 µM?
Found: Met

Lookup: Similarly, Clc1nc(NC23CC4CC(CC(C4)C2)C3)nc(NC23CC4CC(CC(C4)C2)C3)n1 ?
Found: Met

Lookup: What would you report for CC1=CC(=O)c2ccc3c4ccccc4n(C)c3c2C1=O ?
Found: Met

Lookup: Moving on to CC(=O)OC1CCC2(C)C(=CCC3C2CCC2(C)C3CC3OC4(CCC(C)CN4)C(C)C32)C1 (stereo unspecified)
Found: Met

Lookup: Please answer likewise for O=C1/C(=C/c2ccc([N+](=O)[O-])s2)Oc2ccc(Br)cc21
Found: Not met

New cases:
Lookup: Could you verify whether the entry CC1(C)CCOC(Sc2ccccc2)C1 (stereo unspecified) shows TGI of no less than 30 µM?
Found: Met

Lookup: What about this molecule? COc1ccccc1NC(=S)Nc1ccccn1
Found: Met

Lookup: Cool, now CCOC(=O)c1ccc(N[C@@H]2c3cc4c(cc3C(c3cc(OC)c(O)c(OC)c3)[C@H]3C(=O)OCC32)OCO4)cc1 (stereo partly specified)
Found: Not met

Lookup: Also c1ccc([P+](Cc2ccc(C[P+](c3ccccc3)(c3ccccc3)c3ccccc3)s2)(c2ccccc2)c2ccccc2)cc1 , if possible.
Found: Met

Lookup: Also, O=c1oc2cc(O)ccc2cc1-c1nc2ccccc2o1 please.
Found: Met

Lookup: Next: COc1cc(Br)c(C=Nc2cccc3ccc(OS(=O)(=O)c4ccc([N+](=O)[O-])cc4)cc23)cc1OC
Found: Met

Lookup: Same thing, different molecule: C#CCNC(CCCN=C(N)N)C(=O)O (stereo unspecified)
Found: Met

----------
Listed here are compounds together with their documented TGI.
Test system: MDA-N
Test: NCI tumour cell line growth inhibition, 48 h
Please respond with the number in µM and leave the unit unwritten.

Consider the following illustrative entries.
Lookup: For the compound NNC(=O)c1cc(Cl)ccc1NC(=O)C12CC3CC(CC(C3)C1)C2 , what TGI is on record?
Found: 70.5

Lookup: // repeat for C=C1C(=O)OC2/C=C(CO)/C=C\C3OC3(C)CC(OC(=O)/C(C)=C/COC(C)=O)C12 (stereo unspecified) and report
Found: 4.13

Lookup: Next entry: COc1ccc(C(=O)c2[nH]c(Nc3cc(C)ccn3)c(C(=S)Nc3ccccc3)c2N)cc1
Found: 56.2

Moving on to the next compound.
Lookup: Returns the measured TGI for the input compound. Input: COc1ccc(/C=C2\CC3C4CC=C5C[C@@H](N6CCCC6)CC[C@]5(C)C4CC[C@]3(C)[C@H]2O)cc1OC (stereo partly specified)
Found: 14.9

----------
Tested on: HCT-116 colon
Experiment: NCI tumour cell line growth inhibition, 48 h
observation type: TGI

Lookup: What does the record list as TGI for O=C1c2ccccc2C(=O)N1CCN(CCN1C(=O)c2ccccc2C1=O)Cc1ccccc1 ?
Found: > 100 µM

Lookup: Another compound to check: CC(C)OC(=O)NNc1c(Cl)cc(Cl)cc1Cl
Found: > 100 µM

Lookup: Would you mind doing c1ccc2c(c1)n1c(N3CCCC3)[n+]3ccccc3c1c1c3cccc[n+]3c(N3CCCC3)n21 as well?
Found: > 100 µM

Lookup: Then this compound: CC1(C)COC(c2cccc(C(=O)c3ccccc3)c2)=N1
Found: > 100 µM

Lookup: Item: COc1ccc(C)cc1NC(=S)N/N=C/c1ccco1
Found: > 100 µM

Further cases:
Lookup: Which measured TGI value corresponds to CC1(C)CCOC(Sc2ccccc2)C1 (stereo not drawn) ?
Found: > 100 µM

Lookup: Quick one: COC(=O)/C=C1/OC(c2ccccc2)=C(Br)C1=O
Found: > 100 µM
